- System: HCC1569;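 note: TDF denotes transformed human dermal fibroblasts of mesenchymal origin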
- assayDetails: cell number relative to DMSO (% of DMSO); higher = more cells (less growth inhibition / toxicity)
- studyConditions: concentration: 10 µM; 24 h
Here, each record is paired with measured cell number data.
Lab note: jot the number down without any unit.

CN1Cc2c(ccc3c2OCO3)C2C(O)Cc3cc4c(cc3C21)OCO4 (single isomer, unassigned; (+)) [(+)-Chelidonine] | 58

Suppose we examine the compound COc1cc2c(cc1OC)C(C)NCC2 (stereo not drawn) [Salsolodine] ; what cell number value has been reported?
105

Suppose we examine the compound CCN1CC2(COC)C(O)CC(OC)C34C5CC6(O)C(OC)C(O)C(OC(C)=O)(C5C6OC(=O)c5ccccc5)C(C(OC)C23)C14 (stereo not drawn) [Aconitine] ; what cell number value has been reported?
99.9
